target: UniProtKB O14842; test: Agonist activity at human GPR40 expressed in HEK293 cells assessed as increase in calcium mobilization by Fluo-8 dye based fluorescence assay
READOUT_TYPE: EC50

Example entries and their recorded answers appear below.
{"COMPOUND": "CC#CC(CC(=O)O)c1ccc(OCc2ccc(C(=O)N3CCN(C)CC3)s2)cc1 (centres undefined)", "VALUE": "> 5000 nM"}
{"COMPOUND": "O=C(O)CC(c1ccc(OCc2ccc(C(=O)N3CCN(c4ccc(F)cc4)CC3)s2)cc1)C1CC1 (centres undefined)", "VALUE": "> 1670 nM"}
{"COMPOUND": "CC#CC(CC(=O)O)c1ccc(OCc2cnc(C(=O)N3CCN(c4ccc(F)cc4)CC3)s2)cc1 (centres undefined)", "VALUE": "203 nM"}

q: Notebook entry, UniProtKB O14842 assay: EC50 of CC#CC(CC(=O)O)c1ccc(OCc2ccc(C(=O)N3CCN(c4ccncc4)CC3)s2)cc1 (centres undefined) = ?
a: > 5000 nM

---

Entries and their Cmax
experiment: Cmax in ICR mouse at 30 mg/kg, po by LC-MS analysis; assay type: ADME, organism-based; design: dose 30 mg/kg, route oral; conditions: in vivo
Give your result in ng/mL as a bare value.

{"COMPOUND": "CC#C[C@@H](CC(=O)O)c1ccc(OCc2ccc(CN3CCC4(C=Cc5ccccc54)CC3)cc2)cc1 [LY2881835]", "READOUT_TYPE": "Cmax", "VALUE": 2850}
{"COMPOUND": "CC#C[C@@H](CC(=O)O)c1ccc(OCc2ccc(C(=O)N3CCN(c4ccc(F)cc4)CC3)s2)cc1", "READOUT_TYPE": "Cmax", "VALUE": 13300}
{"COMPOUND": "CC#C[C@@H](CC(=O)O)c1ccc(OCc2ccc(C(=O)N[C@@H]3CCCc4ccccc43)cc2)cc1", "READOUT_TYPE": "Cmax", "VALUE": 15400}

Moving on to the next compound.
q: Could you share which Cmax value was measured for CC#C[C@@H](CC(=O)O)c1ccc(OCc2ccc(C(=O)N[C@H]3CCCc4ccccc43)cc2)cc1 ?
a: 3770

---

biological target: Free fatty acid receptor 1 (Rattus norvegicus); assay: Agonist activity at rat GPR40
Sequence (Q8K3T4 whole entry): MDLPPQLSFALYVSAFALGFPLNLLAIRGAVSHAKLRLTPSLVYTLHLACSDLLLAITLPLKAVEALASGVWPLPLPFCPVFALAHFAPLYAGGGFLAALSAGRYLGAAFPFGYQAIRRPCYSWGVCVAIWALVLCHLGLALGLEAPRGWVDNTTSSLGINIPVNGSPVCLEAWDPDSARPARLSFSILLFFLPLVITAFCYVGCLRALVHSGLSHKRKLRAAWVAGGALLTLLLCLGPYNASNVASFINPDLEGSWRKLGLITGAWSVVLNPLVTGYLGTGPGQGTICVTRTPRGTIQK
READOUT_TYPE: pEC50
Scale: pEC50 equals -log10([C]), with [C] in mol/L.

Observe how each entry below is paired with its result.
{"ITEM_SMILES": "CC#C[C@@H](CC(=O)O)c1ccc(OCc2ccc(C(=O)N[C@H]3CCCc4ccccc43)cc2)cc1", "VALUE": 7.55}
{"ITEM_SMILES": "CC#C[C@@H](CC(=O)O)c1ccc(OCc2ccc(C(=O)N[C@@H]3CCCc4ccccc43)cc2)cc1", "VALUE": 7.85}

Now for a further molecule.
q: For the molecule CC#C[C@@H](CC(=O)O)c1ccc(OCc2ccc(C(=O)N3CCN(c4ccc(F)cc4)CC3)s2)cc1 , what pEC50 is on record?
a: 7.60

---

assay: AUC (0 to 8 hrs) in ICR mouse at 30 mg/kg, po by LC-MS analysis; format: ADME, organism-based; design: dose 30 mg/kg, time < 8 hr, route oral; details: in vivo
Recorded AUC(0-t) at 8 h by entry
Form entry: value (ng·h/mL) — number only.

{"COMPOUND": "CC#C[C@@H](CC(=O)O)c1ccc(OCc2ccc(C(=O)N3CCN(c4ccc(F)cc4)CC3)s2)cc1", "AUC(0-t) at 8 h (ng·h/mL)": 28400}
{"COMPOUND": "CC#C[C@@H](CC(=O)O)c1ccc(OCc2ccc(C(=O)N[C@H]3CCCc4ccccc43)cc2)cc1", "AUC(0-t) at 8 h (ng·h/mL)": 3760}
{"COMPOUND": "CC#C[C@@H](CC(=O)O)c1ccc(OCc2ccc(C(=O)N[C@@H]3CCCc4ccccc43)cc2)cc1", "AUC(0-t) at 8 h (ng·h/mL)": 80000}

Continue with the compound presented below.
q: Using the record for CC#C[C@@H](CC(=O)O)c1ccc(OCc2ccc(CN3CCC4(C=Cc5ccccc54)CC3)cc2)cc1 [LY2881835] , report its AUC(0-t) at 8 h.
a: 5150

---

Reported half-life values for the following molecules.
assay: Half life in ICR mouse at 30 mg/kg, po by LC-MS analysis; format: ADME, organism-based; conditions: in vivo
Express it in h; write the number only.

Use the examples below as a reference point.
{"ITEM_SMILES": "CC#C[C@@H](CC(=O)O)c1ccc(OCc2ccc(CN3CCC4(C=Cc5ccccc54)CC3)cc2)cc1", "half-life [h]": 1.3}
{"ITEM_SMILES": "CC#C[C@@H](CC(=O)O)c1ccc(OCc2ccc(C(=O)N[C@@H]3CCCc4ccccc43)cc2)cc1", "half-life [h]": 5.3}
{"ITEM_SMILES": "CC#C[C@@H](CC(=O)O)c1ccc(OCc2ccc(C(=O)N[C@H]3CCCc4ccccc43)cc2)cc1", "half-life [h]": 3}

Please examine the following record next.
q: Look up half-life: CC#C[C@@H](CC(=O)O)c1ccc(OCc2ccc(C(=O)N3CCN(c4ccc(F)cc4)CC3)s2)cc1
a: 3.8

---

molecular target: Free fatty acid receptor 1 (Homo sapiens); test: Agonist activity at human GPR40 expressed in HEK293 cells assessed as increase in calcium mobilization by Fluo-8 dye based fluorescence assay
Entries and their pEC50 values follow.
Keep in mind that pEC50 stands for -log10 of concentration in molar terms.

Examples from the recorded data:
{"MOLECULE": "CC#CC(CC(=O)O)c1ccc(OCc2ccc(C(=O)N3CCc4ccccc4C3)o2)cc1 (centres undefined)", "TGT": "Free fatty acid receptor 1 (Homo sapiens)", "pEC50": 7.30}
{"MOLECULE": "CC#CC(CC(=O)O)c1ccc(OCc2ccc(C(=O)N3CCCc4ccccc43)s2)cc1 (centres undefined)", "TGT": "Free fatty acid receptor 1 (Homo sapiens)", "pEC50": 7.10}
{"MOLECULE": "CC#CC(CC(=O)O)c1ccc(OCc2ccc(C(=O)N3CCN(c4ccccc4F)CC3)s2)cc1 (centres undefined)", "TGT": "Free fatty acid receptor 1 (Homo sapiens)", "pEC50": 6.95}
{"MOLECULE": "CC#CC(CC(=O)O)c1ccc(OCc2ccc(C(=O)N3CCC4(C=Cc5ccccc54)CC3)s2)cc1 (centres undefined)", "TGT": "Free fatty acid receptor 1 (Homo sapiens)", "pEC50": 6.76}
{"MOLECULE": "CC#CC(CC(=O)O)c1ccc(OCc2ccc(C(=O)N3CCC4(C=Cc5ccccc54)CC3)cc2)cc1 (centres undefined)", "TGT": "Free fatty acid receptor 1 (Homo sapiens)", "pEC50": 6.75}
{"MOLECULE": "CC#CC(CC(=O)O)c1ccc(OCc2ccc(C(=O)N3CCN(c4cccnc4)CC3)s2)cc1 (centres undefined)", "TGT": "Free fatty acid receptor 1 (Homo sapiens)", "pEC50": 5.94}

q: Value lookup for pEC50; key = CC#C[C@@H](CC(=O)O)c1ccc(OCc2ccc(CN3CCC4(C=Cc5ccccc54)CC3)cc2)cc1 [LY2881835]
a: 6.87

q: For CC#CC(CC(=O)O)c1ccc(OCc2ccc(C(=O)N3CCN(c4cccc(F)c4)CC3)s2)cc1 (centres undefined) then?
a: 7.01

q: Again, but for CC#CC(CC(=O)O)c1ccc(OCc2ccc(C(=O)N3CCN(c4ccccc4[N+](=O)[O-])CC3)s2)cc1 (centres undefined)
a: 7.03

q: Try CC#CC(CC(=O)O)c1ccc(OCc2ccc(C(=O)NC3CCCc4ccccc43)s2)cc1 (centres undefined) next.
a: 6.96

q: Can you handle CC#C[C@@H](CC(=O)O)c1ccc(OCc2ccc(C(=O)N[C@H]3CCCc4ccccc43)cc2)cc1 next?
a: 7.41

q: // next record CC#CC(CC(=O)O)c1ccc(OCc2ccc(C(=O)N3CCN(C4CCCCC4)CC3)s2)cc1 (centres undefined)
a: 6.09

---

target: Free fatty acid receptor 1 (Homo sapiens, UniProt O14842); assay: Agonist activity at human GPR40 expressed in HEK293 cells assessed as increase in calcium mobilization by Fluo-8 dye based fluorescence assay
Sequence (O14842 whole entry): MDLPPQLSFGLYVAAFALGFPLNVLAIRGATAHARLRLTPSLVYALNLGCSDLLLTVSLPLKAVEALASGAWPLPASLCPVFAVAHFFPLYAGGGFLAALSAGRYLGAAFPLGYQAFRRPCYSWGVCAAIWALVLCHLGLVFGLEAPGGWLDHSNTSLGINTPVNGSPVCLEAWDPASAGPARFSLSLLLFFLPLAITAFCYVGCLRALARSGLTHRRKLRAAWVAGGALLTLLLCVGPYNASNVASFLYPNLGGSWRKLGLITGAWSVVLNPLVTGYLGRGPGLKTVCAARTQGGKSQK
Binary label based on EC50 with cut-off 100 nM: below gives Condition met, not below gives Condition not met.

A selection of reference data follows.
{"MOLECULE": "O=C(O)CC1COc2cc(OCc3ccc(C(=O)N4CCN(c5ccc(F)cc5)CC4)s3)ccc21 (configuration not stated)", "TGT": "Free fatty acid receptor 1 (Homo sapiens, UniProt O14842)", "GROUP_LABEL": "Condition not met"}
{"MOLECULE": "CC#C[C@@H](CC(=O)O)c1ccc(OCc2ccc(C(=O)N3CCN(c4ccc(F)cc4)CC3)s2)cc1", "TGT": "Free fatty acid receptor 1 (Homo sapiens, UniProt O14842)", "GROUP_LABEL": "Condition met"}
{"MOLECULE": "CC#CC(CC(=O)O)c1ccc(OCc2cnc(C(=O)NC3CCCc4ccccc43)s2)cc1 (configuration not stated)", "TGT": "Free fatty acid receptor 1 (Homo sapiens, UniProt O14842)", "GROUP_LABEL": "Condition not met"}
{"MOLECULE": "CC#C[C@H](CC(=O)O)c1ccc(OCc2ccc(C(=O)N3CCN(c4ccc(F)cc4)CC3)s2)cc1", "TGT": "Free fatty acid receptor 1 (Homo sapiens, UniProt O14842)", "GROUP_LABEL": "Condition not met"}
{"MOLECULE": "CC#CC(CC(=O)O)c1ccc(OCc2ccc(C(=O)N3CCN(c4cccc([N+](=O)[O-])c4)CC3)s2)cc1 (configuration not stated)", "TGT": "Free fatty acid receptor 1 (Homo sapiens, UniProt O14842)", "GROUP_LABEL": "Condition not met"}
{"MOLECULE": "CC#CC(CC(=O)O)c1ccc(OCc2ccc(C(=O)N3CCN(c4ccc(F)cc4)CC3)cc2)cc1 (configuration not stated)", "TGT": "Free fatty acid receptor 1 (Homo sapiens, UniProt O14842)", "GROUP_LABEL": "Condition not met"}

Could you now look at the following molecule, please?
q: Record CC#CC(CC(=O)O)c1ccc(OCc2ccc(C(=O)N3CCN(c4ccc(F)cc4)CC3)s2)cc1 (configuration not stated) : is its EC50 strictly below 100 nM?
a: Condition met
